test system: MDA-MB-231; test: Growth inhibition of human MDA-MB-231 cells after 24 hrs by MTT assay; assay type: functional, cell-based; details: MDA-MB-231, 24 h
Sorting guide: entries reporting IC50 beneath 70 µM go in the met pile, the rest go in the not met pile.

The following molecules have reported results that may help.
Given the entry O=c1c2ccccc2oc2cc(OCCCCO[N+](=O)[O-])cc(O)c12 , would its reported IC50 be below 70 µM?
met

Given the entry COc1cc2oc3cc(OCCCO[N+](=O)[O-])cc(O)c3c(=O)c2cc1OC , would its reported IC50 be below 70 µM?
not met

Given the entry Cc1ccc2c(=O)c3c(O)cc(OCCCCCO[N+](=O)[O-])cc3oc2c1 , would its reported IC50 be below 70 µM?
met

Given the entry O=c1c2ccc(O)cc2oc2cc(OCCCCCCCO[N+](=O)[O-])cc(O)c12 , would its reported IC50 be below 70 µM?
met

Given the entry O=[N+]([O-])OCCCCO , would its reported IC50 be below 70 µM?
not met

Given the entry O=[N+]([O-])OCCCO , would its reported IC50 be below 70 µM?
not met

Given the entry O=c1c2cc(O)ccc2oc2cc(OCCCCO[N+](=O)[O-])cc(O)c12 , would its reported IC50 be below 70 µM?
not met

Given the entry O=c1c2ccccc2oc2cc(OCCCCCCO[N+](=O)[O-])cc(O)c12 , would its reported IC50 be below 70 µM?
met

More entries:
Given the entry COc1cc2oc3cc(OCCCCCCCO[N+](=O)[O-])cc(O)c3c(=O)c2cc1OC , would its reported IC50 be below 70 µM?
met

Given the entry COc1cccc2oc3cc(O)cc(O)c3c(=O)c12 , would its reported IC50 be below 70 µM?
met

Given the entry COc1ccc2oc3cc(OCCCCCO[N+](=O)[O-])cc(O)c3c(=O)c2c1 , would its reported IC50 be below 70 µM?
met
